APPLIED CONDITIONS: segatella copri, 12 h, 2 µM
Description: The drug is tested on Prevotella copri strain: DSM18205 for biotransformation. The drug concentrations were measured before and after a 12-h incubation by liquid-chromatography-coupled mass spectrometry (LC–MS)
RECORDED METRIC: Bacterial Biotransformation

>  <MOLECULE>
CN(C/C=C/C#CC(C)(C)C)Cc1cccc2ccccc12 [TERBINAFINE]

>  <RECORDED METRIC>
Bacterial Biotransformation

>  <RESULT>
Compound NOT metabolized

$$$$
>  <MOLECULE>
CC[C@H](C)C(=O)O[C@H]1CCC=C2C=C[C@H](C)[C@H](CC[C@@H]3C[C@@H](O)CC(=O)O3)[C@H]21 [MEVASTATIN]

>  <RECORDED METRIC>
Bacterial Biotransformation

>  <RESULT>
Compound metabolized

$$$$
>  <MOLECULE>
CC(C)c1nc(CN(C)C(=O)N[C@H](C(=O)N[C@@H](Cc2ccccc2)C[C@H](O)[C@H](Cc2ccccc2)NC(=O)OCc2cncs2)C(C)C)cs1 [RITONAVIR]

>  <RECORDED METRIC>
Bacterial Biotransformation

>  <RESULT>
Compound NOT metabolized

$$$$
>  <MOLECULE>
CN1CCC[C@@H]1CCO[C@](C)(c1ccccc1)c1ccc(Cl)cc1.O=C(O)/C=C/C(=O)O [CLEMASTINE FUMARATE]

>  <RECORDED METRIC>
Bacterial Biotransformation

>  <RESULT>
Compound metabolized

$$$$

----------
EXPERIMENT SUMMARY: The drug is tested on Clostridium asparagiforme strain: DSM15981 for biotransformation. The drug concentrations were measured before and after a 12-h incubation by liquid-chromatography-coupled mass spectrometry (LC–MS)
Assay type: ADME
Set-up: dose 2 uM, timepoint 0 vs 12 hours
APPLIED CONDITIONS: enterocloster asparagiformis, 2 µM
RECORDED METRIC: Bacterial Biotransformation

Solved entries:
>  <COMPOUND>
COc1ccc2c3c1O[C@H]1C[C@@H](O)C=C[C@@]31CCN(C)C2

>  <RESULT>
Compound NOT metabolized

$$$$
>  <COMPOUND>
Nc1c2c(nc3ccccc13)CCCC2

>  <RESULT>
Compound NOT metabolized

$$$$
>  <COMPOUND>
O=C(CCCN1CCC2(CC1)C(=O)NCN2c1ccccc1)c1ccc(F)cc1

>  <RESULT>
Compound NOT metabolized

$$$$
>  <COMPOUND>
CC(O)(CS(=O)(=O)c1ccc(F)cc1)C(=O)Nc1ccc(C#N)c(C(F)(F)F)c1 (configuration not stated) [BICALUTAMIDE]

>  <RESULT>
Compound NOT metabolized

$$$$
>  <COMPOUND>
CNC(=C[N+](=O)[O-])NCCSCc1ccc(CN(C)C)o1

>  <RESULT>
Compound metabolized

$$$$

Now take the following compound into account.
INPUT: Requested read-out: Bacterial Biotransformation. Entry: `CNNCc1ccc(C(=O)NC(C)C)cc1`
OUTPUT: Compound NOT metabolized

----------
EXPERIMENT SUMMARY: The drug is tested on Clostridium sporogenes strain: ATCC15579 for biotransformation. The drug concentrations were measured before and after a 12-h incubation by liquid-chromatography-coupled mass spectrometry (LC–MS)
APPLIED CONDITIONS: 2 µM
RECORDED METRIC: Bacterial Biotransformation

>  <COMPOUND>
Cc1ccc(-c2nc3ccc(C)cn3c2CC(=O)N(C)C)cc1

>  <Bacterial Biotransformation>
Compound NOT metabolized

$$$$
>  <COMPOUND>
O=C(O)c1cc(/N=N/c2ccc(S(=O)(=O)Nc3ccccn3)cc2)ccc1O

>  <Bacterial Biotransformation>
Compound metabolized

$$$$
>  <COMPOUND>
CCN1CCCC1CNC(=O)c1cc(S(=O)(=O)CC)c(N)cc1OC (centres undefined) [AMISULPRIDE]

>  <Bacterial Biotransformation>
Compound NOT metabolized

$$$$
>  <COMPOUND>
CNNCc1ccc(C(=O)NC(C)C)cc1

>  <Bacterial Biotransformation>
Compound NOT metabolized

$$$$
>  <COMPOUND>
CCC(COC(=O)c1cc(OC)c(OC)c(OC)c1)(c1ccccc1)N(C)C.O=C(O)/C=C\C(=O)O (centres undefined)

>  <Bacterial Biotransformation>
Compound metabolized

$$$$

Now take the following compound into account.
INPUT: Requested read-out: Bacterial Biotransformation. Entry: CN(C)C(=O)Oc1cc(OC(=O)N(C)C)cc(C(O)CNC(C)(C)C)c1 (centres undefined)
OUTPUT: Compound NOT metabolized

Where do these numbers come from? They come from ChEMBL document CHEMBL5303573.
